biological target: human sodium ion channel 1.7 (hNav1.7) (Homo sapiens, UniProt Q15858); test: Blocking effect against sodium ion channel Nav1.7, IonFlux16 auto patch clamp in hNav1.7 HEK293 cells; type: cell-based; conditions: hNav1.7 HEK293 cells; inhibition of peak current after 50 seconds treatment; eight concentrations; read-out: IC50
Sequence (Q15858 whole entry): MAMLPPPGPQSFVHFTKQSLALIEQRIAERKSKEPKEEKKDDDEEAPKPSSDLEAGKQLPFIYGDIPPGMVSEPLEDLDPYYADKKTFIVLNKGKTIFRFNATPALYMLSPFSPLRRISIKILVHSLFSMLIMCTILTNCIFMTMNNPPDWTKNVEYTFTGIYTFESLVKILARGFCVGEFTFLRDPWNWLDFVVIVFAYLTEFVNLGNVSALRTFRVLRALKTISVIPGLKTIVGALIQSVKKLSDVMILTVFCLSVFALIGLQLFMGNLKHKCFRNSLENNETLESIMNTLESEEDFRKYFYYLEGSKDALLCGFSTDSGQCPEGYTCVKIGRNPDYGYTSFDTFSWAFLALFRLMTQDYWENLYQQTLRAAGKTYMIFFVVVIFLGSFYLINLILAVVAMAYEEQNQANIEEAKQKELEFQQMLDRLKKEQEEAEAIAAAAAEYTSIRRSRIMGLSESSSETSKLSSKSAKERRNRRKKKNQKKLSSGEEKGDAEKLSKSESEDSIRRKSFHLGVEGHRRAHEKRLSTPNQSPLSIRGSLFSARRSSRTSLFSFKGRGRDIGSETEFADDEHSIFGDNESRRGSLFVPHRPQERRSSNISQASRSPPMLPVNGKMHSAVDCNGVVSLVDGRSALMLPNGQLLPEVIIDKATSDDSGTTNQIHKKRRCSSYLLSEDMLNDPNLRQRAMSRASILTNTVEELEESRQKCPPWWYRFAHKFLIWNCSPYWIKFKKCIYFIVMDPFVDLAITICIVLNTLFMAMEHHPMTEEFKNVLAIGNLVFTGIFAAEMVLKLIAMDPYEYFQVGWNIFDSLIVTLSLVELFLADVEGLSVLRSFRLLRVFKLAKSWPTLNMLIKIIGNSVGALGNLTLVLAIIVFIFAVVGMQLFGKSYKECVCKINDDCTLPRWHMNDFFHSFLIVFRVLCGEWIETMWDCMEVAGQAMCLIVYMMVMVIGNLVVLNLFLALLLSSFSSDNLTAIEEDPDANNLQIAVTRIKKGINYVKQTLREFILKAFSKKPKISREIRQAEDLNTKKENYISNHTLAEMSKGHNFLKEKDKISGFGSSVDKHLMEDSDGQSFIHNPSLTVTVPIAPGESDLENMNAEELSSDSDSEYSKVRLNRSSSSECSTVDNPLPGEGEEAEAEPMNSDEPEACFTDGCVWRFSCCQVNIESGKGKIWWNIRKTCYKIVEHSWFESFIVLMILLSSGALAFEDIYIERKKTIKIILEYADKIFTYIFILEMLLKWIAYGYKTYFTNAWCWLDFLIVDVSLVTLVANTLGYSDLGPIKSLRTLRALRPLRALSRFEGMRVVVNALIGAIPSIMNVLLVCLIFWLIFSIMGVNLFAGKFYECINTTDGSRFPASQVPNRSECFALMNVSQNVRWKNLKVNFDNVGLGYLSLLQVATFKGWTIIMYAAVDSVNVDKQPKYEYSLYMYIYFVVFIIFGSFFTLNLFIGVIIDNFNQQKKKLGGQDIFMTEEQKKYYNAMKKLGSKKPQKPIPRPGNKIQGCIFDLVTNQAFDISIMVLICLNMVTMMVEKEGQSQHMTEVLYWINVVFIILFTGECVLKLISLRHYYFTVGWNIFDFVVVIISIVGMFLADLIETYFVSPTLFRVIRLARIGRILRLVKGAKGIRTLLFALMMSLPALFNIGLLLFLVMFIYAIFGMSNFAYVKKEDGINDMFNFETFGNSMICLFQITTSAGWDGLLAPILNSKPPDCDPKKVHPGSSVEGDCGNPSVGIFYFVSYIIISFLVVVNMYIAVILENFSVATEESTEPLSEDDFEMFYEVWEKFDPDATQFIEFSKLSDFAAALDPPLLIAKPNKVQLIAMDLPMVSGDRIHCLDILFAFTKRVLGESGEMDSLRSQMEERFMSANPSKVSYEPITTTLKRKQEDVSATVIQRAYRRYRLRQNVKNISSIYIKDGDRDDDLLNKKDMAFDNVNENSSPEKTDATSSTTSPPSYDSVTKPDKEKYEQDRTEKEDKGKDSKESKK
Parameter: pIC50. Scope: all listed entries.
Scale: pIC50 equals -log10([C]), with [C] in mol/L.

pIC50 on human sodium ion channel 1.7 (hNav1.7) (Homo sapiens, UniProt Q15858) for Cc1cccc(-c2cn(-c3cc(F)c(C(=O)NS(C)(=O)=O)cc3Cl)c3ncccc23)c1 [Example 215] is 6.68

Item: CN(C)S(=O)(=O)NC(=O)c1cc(Cl)c(-n2nc(Cl)c3cc(Cl)ccc32)cc1F [Example 7] | System: human sodium ion channel 1.7 (hNav1.7) (Homo sapiens, UniProt Q15858) | pIC50: 6.64

---

Reported pIC50 values for the following compounds.
molecular target: human sodium ion channel 1.7 (hNav1.7) (Homo sapiens); assay: Blocking effect against sodium ion channel Nav1.7, IonFlux16 auto patch clamp in hNav1.7 HEK293 cells; format: cell-based; conditions: hNav1.7 HEK293 cells; inhibition of peak current after 50 seconds treatment; eight concentrations; read-out: IC50
# reply with the number alone; pIC50 is -log10 of concentration in mol/L

Please review the entries below; each comes with its answer.
{"columns": ["compoundStructure", "subjectOfTest", "pIC50"],
 "data": [
  ["CS(=O)(=O)NC(=O)c1cc(Cl)c(-n2nc(-c3cccc(Cl)c3)c3cc(F)ccc32)cc1F", "human sodium ion channel 1.7 (hNav1.7) (Homo sapiens)", 7.40],
  ["CS(=O)(=O)NC(=O)c1cc(Cl)c(-n2nc(Cl)c3cc(OCc4ccccc4)ccc32)cc1F", "human sodium ion channel 1.7 (hNav1.7) (Homo sapiens)", 7.31]
]}

# pIC50 (compound: `CS(=O)(=O)NC(=O)c1cc(Cl)c(-n2nc(Cl)c3cc(-c4cccc(C(F)(F)F)c4)ccc32)cc1F` ) is 7.13

Recorded pIC50 (compound `CS(=O)(=O)NC(=O)c1cc(Cl)c(-n2nc(Cl)c3cc(OCC4CCCCC4)ccc32)cc1F` ): 6.68

---

Below, each of the molecules is paired with its reported IC50 value.
target: human sodium ion channel 1.7 (hNav1.7) (Homo sapiens, UniProt Q15858); experiment: Blocking effect against sodium ion channel Nav1.7, IonFlux16 auto patch clamp in hNav1.7 HEK293 cells; type: cell-based; details: hNav1.7 HEK293 cells; inhibition of peak current after 50 seconds treatment; eight concentrations; read-out: IC50
Just the number please, in µM, no unit attached.

IC50 measured on `CS(=O)(=O)NC(=O)c1cc(Cl)c(-n2nc(Cl)c3cc(-c4ccc(F)cc4F)ccc32)cc1F` = 0.175

molecule `CC(C)(C)OC(=O)N1CC=C(c2nn(-c3cc(F)c(C(=O)NS(C)(=O)=O)cc3Cl)c3ccc(Cl)cc23)CC1` , IC50 observed: 2.6

Lookup result for CC(Oc1ccc2c(c1)c(Cl)nn2-c1cc(F)c(C(=O)NS(C)(=O)=O)cc1Cl)c1ccccc1 (stereo not shown) ; measured IC50: 0.214

Value of measured IC50 for the entry `COc1ccccc1-c1nn(-c2cc(F)c(C(=O)NS(C)(=O)=O)cc2Cl)c2ccccc12` : 0.85

---

target: human sodium ion channel 1.7 (hNav1.7) (Homo sapiens); assay: Blocking effect against sodium ion channel Nav1.7, IonFlux16 auto patch clamp in hNav1.7 HEK293 cells; type: cell-based; details: hNav1.7 HEK293 cells; inhibition of peak current after 50 seconds treatment; eight concentrations; read-out: IC50
endpoint: pIC50
Quick note: pIC50 means taking -log10 of the concentration in moles per liter.

{"columns": ["compoundStructure", "pIC50"],
 "data": [
  ["CS(=O)(=O)NC(=O)c1cc(Cl)c(-n2cc(-c3ccccc3Cl)c3cc(Cl)cnc32)cc1F", 6.77]
]}

Hey, human sodium ion channel 1.7 (hNav1.7) (Homo sapiens) data for `CS(=O)(=O)NC(=O)c1ccc(-n2nc(-c3ccccc3)c3cc(Cl)ccc32)cc1F` : pIC50 came out at 5.41

Bench note, human sodium ion channel 1.7 (hNav1.7) (Homo sapiens): `CS(=O)(=O)NC(=O)c1cc(Cl)c(-n2nc(-c3cccc(Cl)c3F)c3cc(F)ccc32)cc1F` , pIC50 reads 6.92

Considering `COc1ccccc1-c1nn(-c2cc(Cl)c(C(=O)NS(C)(=O)=O)cc2F)c2ccc(Cl)cc12` , its pIC50 with human sodium ion channel 1.7 (hNav1.7) (Homo sapiens) was recorded as 6.09

Record `CS(=O)(=O)NC(=O)c1cc(Cl)c(-n2nc(-c3ccccc3)c3cc(-c4ccccc4)ccc32)cc1F` ; system human sodium ion channel 1.7 (hNav1.7) (Homo sapiens); pIC50 = 6.79

Tested system human sodium ion channel 1.7 (hNav1.7) (Homo sapiens); pIC50 recorded for `CS(=O)(=O)NC(=O)c1cc(Cl)c(-n2nc(-c3ccccc3Cl)c3cc(F)ccc32)cc1F` was 6.27

---

biological target: UniProt:Q15858; assay: Blocking effect against sodium ion channel Nav1.7, IonFlux16 auto patch clamp in hNav1.7 HEK293 cells; assay type: cell-based; conditions: hNav1.7 HEK293 cells; inhibition of peak current after 50 seconds treatment; eight concentrations; read-out: IC50
pIC50: −log10 of the molar value.
Record T whenever pIC50 is at 7 or higher; record F when lower.

{"columns": ["compoundStructure", "subjectOfTest", "classification"],
 "data": [
  ["NC(=O)c1cc(Cl)c(-n2nc(-c3ccc(Cl)cc3F)c3cc(Cl)ccc32)cc1F", "UniProt:Q15858", "F"],
  ["Cn1nccc1-c1nn(-c2cc(F)c(S(=O)(=O)Nc3ncns3)cc2Cl)c2ccc(Cl)cc12", "UniProt:Q15858", "F"],
  ["CS(=O)(=O)NC(=O)c1ccc(-n2nc(-c3cccc(C#N)c3)c3cc(F)ccc32)c(C#N)c1", "UniProt:Q15858", "F"],
  ["CS(=O)(=O)NC(=O)c1cc(Cl)c(-n2cc(-c3cccc(Cl)c3)c3cc(F)cnc32)cc1F", "UniProt:Q15858", "T"],
  ["COc1ncccc1-c1nn(-c2ccc(C(=O)NS(C)(=O)=O)cc2C#N)c2ccc(Cl)cc12", "UniProt:Q15858", "F"],
  ["CS(=O)(=O)NC(=O)c1cc(Cl)c(-n2nc(-c3ccccc3F)c3cc(Cl)ccc32)cc1F", "UniProt:Q15858", "T"]
]}

Then this compound:
Identify whether the reported pIC50 of the following compound is 7 or greater: `CS(=O)(=O)NC(=O)c1cc(Cl)c(-n2nc(-c3ccc(F)cc3)c3ccccc32)cc1F`
F

---

target: human sodium ion channel 1.7 (hNav1.7) (Homo sapiens, UniProt Q15858); assay: Blocking effect against sodium ion channel Nav1.7, IonFlux16 auto patch clamp in hNav1.7 HEK293 cells; assay type: cell-based; conditions: hNav1.7 HEK293 cells; inhibition of peak current after 50 seconds treatment; eight concentrations; read-out: IC50
pIC50: −log10 of the molar value.
endpoint: pIC50

{"columns": ["compound", "pIC50"],
 "data": [
  ["CS(=O)(=O)N(Cc1ccc2ccccc2c1)C(=O)c1cc(Cl)c(-n2nc(Cl)c3cc(O)ccc32)cc1F [Example 140]", "< 5.00"],
  ["O=S(=O)(Nc1ncns1)c1cc(F)c(-n2nc(Cl)c3cc(C(F)(F)F)ccc32)cc1F [Example 281]", "5.00 to 5.52"]
]}

Entry CCOC(=O)c1cnc(NC(=O)c2cc(Cl)c(-n3nc(-c4ccc(Cl)cc4F)c4cc(Cl)ccc43)cc2F)s1 [Example 296] , pIC50 reported as < 5.00

---

Quick reference: pIC50 of the listed items.
molecular target: human sodium ion channel 1.7 (hNav1.7) (Homo sapiens, UniProt Q15858); assay: Blocking effect against sodium ion channel Nav1.7, IonFlux16 auto patch clamp in hNav1.7 HEK293 cells; format: cell-based; details: hNav1.7 HEK293 cells; inhibition of peak current after 50 seconds treatment; eight concentrations; read-out: IC50
pIC50: −log10 of the molar value.

Please review the following examples before continuing.
{"columns": ["compound", "valueReported"],
 "data": [
  ["Cn1cc(-c2nn(-c3cc(F)c(C(=O)NS(C)(=O)=O)cc3Cl)c3ccc(Cl)cc23)ccc1=O [Example 130]", "< 5.00"],
  ["O=S(=O)(Nc1cscn1)c1cc(Cl)c(-n2nc(-c3cn[nH]c3)c3cc(Cl)ccc32)cc1F [Example 284]", "< 5.00"],
  ["CS(=O)(=O)NC(=O)c1cc(Cl)c(-n2nc(-c3ccccc3C#N)c3cc(Cl)ccc32)cc1F [Example 60]", "< 5.00"],
  ["CS(=O)(=O)NC(=O)c1cc(Cl)c(-n2nc(Cl)c3cc(-c4ccncc4)ccc32)cc1F [Example 232]", "5.52 to 6.00"]
]}

Field pIC50 (human sodium ion channel 1.7 (hNav1.7) (Homo sapiens, UniProt Q15858)), entry CS(=O)(=O)NC(=O)c1cc(Cl)c(-n2nc(Cl)c3cc(O)ccc32)cc1F [Example 16] : < 5.00

From: patent US10590078B2
